Molecular target: human Y2 receptor (Homo sapiens, UniProt P49146)
Construct: expressed in transfected cells; membrane fraction
Sequence (P49146 1-381): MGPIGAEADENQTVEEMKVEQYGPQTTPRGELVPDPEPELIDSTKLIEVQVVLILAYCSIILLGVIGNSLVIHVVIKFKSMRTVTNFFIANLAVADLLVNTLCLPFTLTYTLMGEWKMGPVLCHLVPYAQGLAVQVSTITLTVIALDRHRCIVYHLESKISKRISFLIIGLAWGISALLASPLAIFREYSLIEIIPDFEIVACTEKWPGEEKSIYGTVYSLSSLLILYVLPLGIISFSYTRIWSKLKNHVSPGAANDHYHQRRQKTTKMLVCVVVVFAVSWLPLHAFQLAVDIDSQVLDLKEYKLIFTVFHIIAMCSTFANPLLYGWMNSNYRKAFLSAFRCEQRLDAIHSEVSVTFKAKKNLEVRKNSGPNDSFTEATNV
Experiment: Receptor Binding Assay (RBA) for Human Y2, [125I]-PYY displacement on hY2R/CHO membrane fraction
Conditions: IC50 of test compound/IC50 of PYY(3-36) (PYY(3-36) taken as 1)
Non-standard residues stand in square brackets, D forms with d. *: point of attachment. 1Nal = N[C@@H](Cc1cccc2ccccc12)C(=O)O; Cha = N[C@@H](CC1CCCCC1)C(=O)O; Isobutyryl = CC(C)C(=O)*; Abu = CC[C@H](N)C(=O)O; Aib = CC(C)(N)C(=O)O; Bz = O=C(c1ccccc1)*
propertyMeasured: RBA IC50 Ratio

substance: Isobutanoyl-[Abu26, Gly27, Cha28,36, Aib31]-PYY(25-36) (Isobutyryl-R[Abu]G[Cha]NL[Aib]TRQR[Cha]-NH2; SMILES CC[C@H](NC(=O)[C@H](CCCNC(=N)N)NC(=O)C(C)C)C(=O)NCC(=O)N[C@@H](CC1CCCCC1)C(=O)N[C@@H](CC(N)=O)C(=O)N[C@@H](CC(C)C)C(=O)NC(C)(C)C(=O)N[C@H](C(=O)N[C@@H](CCCNC(=N)N)C(=O)N[C@@H](CCC(N)=O)C(=O)N[C@@H](CCCNC(=N)N)C(=O)N[C@@H](CC1CCCCC1)C(N)=O)[C@@H](C)O) [compound No. 95]
RBA IC50 Ratio: 70

Measured RBA IC50 Ratio of Benzoyl-[Cha27,36, Nal(1)28, Aib31]-PYY(25-36) (Bz-RH[Cha][1Nal]NL[Aib]TRQR[Cha]-NH2; SMILES CC(C)C[C@H](NC(=O)[C@H](CC(N)=O)NC(=O)[C@H](Cc1cccc2ccccc12)NC(=O)[C@H](CC1CCCCC1)NC(=O)[C@H](Cc1c[nH]cn1)NC(=O)[C@H](CCCNC(=N)N)NC(=O)c1ccccc1)C(=O)NC(C)(C)C(=O)N[C@H](C(=O)N[C@@H](CCCNC(=N)N)C(=O)N[C@@H](CCC(N)=O)C(=O)N[C@@H](CCCNC(=N)N)C(=O)N[C@@H](CC1CCCCC1)C(N)=O)[C@@H](C)O) [compound No. 63] : 34

###

Listed below: RBA IC50 Ratio values for each entry.
Biological target: human Y2 receptor (Homo sapiens, UniProt P49146)
Construct: expressed in transfected cells; membrane fraction
Sequence (P49146 1-381): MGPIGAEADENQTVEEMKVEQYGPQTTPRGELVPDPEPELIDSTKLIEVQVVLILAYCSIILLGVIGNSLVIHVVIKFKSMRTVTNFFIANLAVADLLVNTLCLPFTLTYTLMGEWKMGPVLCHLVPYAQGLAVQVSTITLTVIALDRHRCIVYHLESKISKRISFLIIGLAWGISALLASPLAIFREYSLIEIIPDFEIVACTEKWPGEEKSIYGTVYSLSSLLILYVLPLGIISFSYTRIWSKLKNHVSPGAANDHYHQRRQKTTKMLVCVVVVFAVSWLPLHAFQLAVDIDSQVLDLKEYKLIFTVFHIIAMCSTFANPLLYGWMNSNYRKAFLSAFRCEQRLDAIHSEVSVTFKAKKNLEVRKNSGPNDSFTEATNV
Test: Receptor Binding Assay (RBA) for Human Y2, [125I]-PYY displacement on hY2R/CHO membrane fraction
Settings: IC50 of test compound/IC50 of PYY(3-36) (PYY(3-36) taken as 1)
Non-standard residues stand in square brackets, D forms with d. *: point of attachment. 4Pal = N[C@@H](Cc1ccncc1)C(=O)O; Cha = N[C@@H](CC1CCCCC1)C(=O)O; Isobutyryl = CC(C)C(=O)*; Abu = CC[C@H](N)C(=O)O; Aib = CC(C)(N)C(=O)O; Bz = O=C(c1ccccc1)*
Form field (numeric): enter value without unit.

substance: Benzoyl-[Ser26, Cha27,28,36, Aib31]-PYY(25-36) (Bz-RS[Cha][Cha]NL[Aib]TRQR[Cha]-NH2; SMILES CC(C)C[C@H](NC(=O)[C@H](CC(N)=O)NC(=O)[C@H](CC1CCCCC1)NC(=O)[C@H](CC1CCCCC1)NC(=O)[C@H](CO)NC(=O)[C@H](CCCNC(=N)N)NC(=O)c1ccccc1)C(=O)NC(C)(C)C(=O)N[C@H](C(=O)N[C@@H](CCCNC(=N)N)C(=O)N[C@@H](CCC(N)=O)C(=O)N[C@@H](CCCNC(=N)N)C(=O)N[C@@H](CC1CCCCC1)C(N)=O)[C@@H](C)O) [compound No. 97]
RBA IC50 Ratio: 13
--
substance: Benzoyl-[Cha27,28,36, Aib31]-PYY(25-36) (Bz-RH[Cha][Cha]NL[Aib]TRQR[Cha]-NH2; SMILES CC(C)C[C@H](NC(=O)[C@H](CC(N)=O)NC(=O)[C@H](CC1CCCCC1)NC(=O)[C@H](CC1CCCCC1)NC(=O)[C@H](Cc1c[nH]cn1)NC(=O)[C@H](CCCNC(=N)N)NC(=O)c1ccccc1)C(=O)NC(C)(C)C(=O)N[C@H](C(=O)N[C@@H](CCCNC(=N)N)C(=O)N[C@@H](CCC(N)=O)C(=O)N[C@@H](CCCNC(=N)N)C(=O)N[C@@H](CC1CCCCC1)C(N)=O)[C@@H](C)O) [compound No. 64]
RBA IC50 Ratio: 28
--
substance: Benzoyl-[Cha27,36, Ile28, Pya(4)31]-PYY(25-36) (Bz-RH[Cha]INL[4Pal]TRQR[Cha]-NH2; SMILES CC[C@H](C)[C@H](NC(=O)[C@H](CC1CCCCC1)NC(=O)[C@H](Cc1c[nH]cn1)NC(=O)[C@H](CCCNC(=N)N)NC(=O)c1ccccc1)C(=O)N[C@@H](CC(N)=O)C(=O)N[C@@H](CC(C)C)C(=O)N[C@@H](Cc1ccncc1)C(=O)N[C@H](C(=O)N[C@@H](CCCNC(=N)N)C(=O)N[C@@H](CCC(N)=O)C(=O)N[C@@H](CCCNC(=N)N)C(=O)N[C@@H](CC1CCCCC1)C(N)=O)[C@@H](C)O) [compound No. 71]
RBA IC50 Ratio: 7.6

Below: the item to evaluate.
Lab entry: human Y2 receptor (Homo sapiens, UniProt P49146) assay, substance Isobutanoyl-[Abu26, Cha27,28,36, Abu30, Aib31]-PYY(25-36) (Isobutyryl-R[Abu][Cha][Cha]N[Abu][Aib]TRQR[Cha]-NH2; SMILES CC[C@H](NC(=O)[C@H](CCCNC(=N)N)NC(=O)C(C)C)C(=O)N[C@@H](CC1CCCCC1)C(=O)N[C@@H](CC1CCCCC1)C(=O)N[C@@H](CC(N)=O)C(=O)N[C@@H](CC)C(=O)NC(C)(C)C(=O)N[C@H](C(=O)N[C@@H](CCCNC(=N)N)C(=O)N[C@@H](CCC(N)=O)C(=O)N[C@@H](CCCNC(=N)N)C(=O)N[C@@H](CC1CCCCC1)C(N)=O)[C@@H](C)O) [compound No. 91] , RBA IC50 Ratio = 20
